method_notes: Sulforhodamine cytotoxicity assay, fibroblast
Type: cell-based
measurement_conditions: human, fibroblast cells derived from human foreskins
attribute_measured: CC50 at 48 h

Illustrative cases are given below, each with its answer.
compound	CC50 at 48 h
O=c1cc(-c2ccc(O)c(O)c2)oc2cc(O)cc(O)c12	49.8 µg/mL
O=C(O)c1ccc(O)c(O)c1	> 200 µg/mL
CC[C@@]1(O)C(=O)OCc2c1cc1n(c2=O)Cc2cc3ccccc3nc2-1 [camptothecin, reference compound]	1.57 µg/mL
O=c1c(O)c(-c2cc(O)c(O)c(O)c2)oc2cc(O)cc(O)c12	76.1 µg/mL

API: the following record is the query input.
The value of CC50 at 48 h measured for the compound O=C1C[C@@H](c2ccc(O)cc2)Oc2cc(O)cc(O)c21 turned out to be 133 µg/mL

These entries and their values trace back to paper PMC7439261.
